Test system: K-562 leukemia
protocol_notes: NCI-60 one-dose screen, 48 h
run_parameters: 10 µM unless noted
Compounds without any hit were thinned out: in the full panel of roughly 83,000, 20% have a hit. Activity calls are given as the source filed them. How the source made its calls: active means growth percent below 10; inactive means the rest.
One label from this list, please: active, inactive

Solved entries (count: 5):
1. CCOC(=O)/C=C1\S/C(=N\Nc2cc(=O)[nH]c3ccc(Cl)cc23)N(c2ccccc2)C1=O	inactive
2. CC(=O)N(N=Nc1ccccc1)c1cccc2ccccc12	inactive
3. COc1ccccc1Nc1nc2c(s1)C1=CC[C@H]3[C@@H]4CC[C@H]([C@H](C)CCCC(C)C)[C@@]4(C)CC[C@@H]3[C@@]1(C)CC2	inactive
4. CCN(CC)CCNC(=O)c1cn2ncnc(Oc3ccc(NC(=O)Nc4ccc(Cl)c(C(F)(F)F)c4)c(F)c3)c2c1C	active
5. Cc1ccc(Sc2oc(-c3ccc(C)cc3)nc2[P+](c2ccccc2)(c2ccccc2)c2ccccc2)cc1	active

Inquiry: Hi team, can someone confirm the assay call for C=C1C(=O)O[C@H]2[C@H]1CC/C(COC(=O)NCc1ccc(Cn3c(=O)sn(CCI)c3=O)cc1)=C\CC[C@@]1(C)O[C@@H]21 ?
Reply text: active

Inquiry: Hi team, can someone confirm the assay call for COc1cc(-c2csc(NC(=O)c3cc(-n4cnc(C)c4)cc(C(F)(F)F)c3)n2)cc(OC)c1OC ?
Reply text: inactive

Inquiry: Hi team, can someone confirm the assay call for COc1cc2c(c(OC)c1OC)CCC(c1cccc(C(=O)Nc3cccc(Br)c3)c1)O2 (stereo not given) ?
Reply text: inactive

Inquiry: Hi team, can someone confirm the assay call for CN1CCN(C(=O)OCc2ccc3c(Cl)cc(Cl)c(O)c3n2)CC1 ?
Reply text: inactive

Inquiry: Hi team, can someone confirm the assay call for O=C1Nc2ccccc2[C@]12CC(c1ccccc1)=NN2 ?
Reply text: inactive

###

Tested on: KM12 colon
protocol_notes: NCI-60 one-dose screen, 48 h (100 = growth as untreated, 0 = no growth, -100 = all killed)
run_parameters: 10 µM unless noted
The panel holds about 83,000 compounds, 20% with a hit somewhere; the sample as a whole holds those more often.
Threshold check on growth: strictly below 60% is Y; on or above 60% is N.

Inquiry: Lab note: confirm whether the reported growth for this compound is below 60%, equality not counting. compound: CCCCN1C(=O)/C(=c2\sc3n(c2=O)C2C(NN=3)N(CC)C(=O)N2CC)c2ccccc21 (stereo unspecified)
Reply text: Y

###

Test system: T-47D breast
protocol_notes: NCI-60 one-dose screen, 48 h (100 = growth as untreated, 0 = no growth, -100 = all killed)
run_parameters: 10 µM unless noted
This is part of a sample that, as a whole, favours compounds with a hit. Of some 83,000 tested, about 20% had one in any assay.
Threshold check on growth: strictly below 40% is MET; on or above 40% is NOT MET.

Solved entries (count: 10):
1) N#C/C(=C/c1ccc([N+](=O)[O-])cc1)n1nnc2cc(F)c(F)cc21	MET
2) Clc1ccc(Nc2nnc(COc3ccccc3)c3ccccc23)cc1	MET
3) O=C(c1cc2ccccc2o1)c1nn(-c2ccccc2)/c(=N/N=Cc2cn(-c3ccccc3)nc2-c2cc3ccccc3oc2=O)s1	NOT MET
4) Cc1ccc2c3c(c(=O)[nH]c2c1)C1(C(C#N)=C(N)O3)c2cc(Br)ccc2-c2ccc(Br)cc21	MET
5) CCCc1cc(NC)nc(S(=O)(=O)CC)n1	NOT MET
6) COc1cc2c(c(OC)c1OC)-c1ccc(OC)c(=O)cc1[C@@H](NC(=O)CCl)CC2	NOT MET
7) Cc1ccc(-c2nc(/C=C3/C(=O)Nc4ccccc43)c3ccccn23)cc1	NOT MET
8) CCCCNc1ccc(C#N)c(OCCN(CC)CC)c1	NOT MET
9) COc1ccc(-c2nc(SCC(C)C)nc(N/N=C\c3ccc(F)cc3)c2C#N)cc1	NOT MET
10) C=C(C)[C@@H]1CC[C@]2(C(=O)NCC#CCN3CCN(C)CC3)CC[C@]3(C)[C@H](CC[C@@H]4[C@@](C)(CCC#N)[C@H](C(=C)C)CC[C@]43C)[C@@H]12	MET

Inquiry: Lab note: confirm whether the reported growth for this compound is below 40%, equality not counting. compound: CCN1C(=O)N(CC)C2C1NN=c1s/c(=C\c3ccc(Cl)cc3Cl)c(=O)n12 (stereo not drawn)
Reply text: NOT MET

Inquiry: Lab note: confirm whether the reported growth for this compound is below 40%, equality not counting. compound: c1cnc2[nH]cc(-c3csc(-c4cn(CCCN5CCOCC5)c5ccccc45)n3)c2c1
Reply text: MET

###

Test system: OVCAR-5 ovarian
protocol_notes: NCI-60 one-dose screen, 48 h
run_parameters: 10 µM unless noted
About 83,000 compounds went through this panel and 20% of them were active in at least one assay; those are over-represented in the sample as a whole. Activity calls are given as the source filed them. Rule for the calls: active = growth percent below 10; inactive = the rest.
One label from this list, please: True = active, False = inactive

Solved entries (count: 4):
1) Cc1cccc(N2CCN(CC(O)COc3ccc(Cl)cc3)CC2)c1 (stereo not given)	False
2) COc1ccccc1Nc1nc2c(s1)C1=CC[C@H]3[C@@H]4CC[C@H]([C@H](C)CCCC(C)C)[C@@]4(C)CC[C@@H]3[C@@]1(C)CC2	False
3) COc1ccc(-c2cn(-c3cc(OC)c(OC)c(OC)c3)c(=O)n2C(C)=O)cc1	False
4) N=C(N)c1ccc(-c2ccc(-c3ccc(F)cc3)o2)o1	False

Inquiry: Hi team, can someone confirm the assay call for O=C(CSc1nc(-c2ccccc2)[nH]c1S(=O)(=O)c1ccccc1)NC1CC1 ?
Reply text: False

Inquiry: Hi team, can someone confirm the assay call for CC(C)N1CN2C(=S)NC3C2N(C1)C(=S)N3C (stereo not given) ?
Reply text: False

Inquiry: Hi team, can someone confirm the assay call for N=C(N)c1ccc(-c2ccc(-c3ccc(Cl)cc3)s2)nc1 ?
Reply text: True

Inquiry: Hi team, can someone confirm the assay call for CCOC(=O)c1ccc2[nH]c(O)c(C(=Nc3ccc(N(C)C(=O)CN4CCN(C)CC4)cc3)c3ccccc3)c2c1 ?
Reply text: True

Inquiry: Hi team, can someone confirm the assay call for CCC(C)N(c1ccc(Cl)cc1)c1nc(-c2ccc(Br)cc2)cs1 (stereo not given) ?
Reply text: False

Inquiry: Hi team, can someone confirm the assay call for CCOC(=O)c1cnc2ccccc2c1Cl ?
Reply text: False

###

Tested on: SNB-19 CNS
protocol_notes: NCI-60 one-dose screen, 48 h
run_parameters: 10 µM unless noted
Compounds without any hit were thinned out: in the full panel of roughly 83,000, 20% have a hit. Active and inactive are the calls of the source. How the source made its calls: active means growth percent below 10; inactive means the rest.
One label from this list, please: 1 (yes) (active), 0 (no) (inactive)

Solved entries (count: 5):
1. COC(=O)c1c2c(c(C)[n+]([O-])c1C)C(=O)C=C(NCc1ccc(Br)cc1)C2=O	1 (yes)
2. O=C(Cc1ccccc1)Nc1nc(O)c(/C=C2\C(=O)C=Cc3ccccc32)s1	0 (no)
3. COC(=O)[C@]1(C)CCC[C@]2(C)[C@H]3C[C@H]4C(C(C)C)=C[C@]3(CC[C@H]21)[C@H]1[C@@H]4[C@@H](OCCC#N)CC[C@@H]1OCCC#N	0 (no)
4. C=CCn1c(SCC(=O)NCc2cc(C)c(O)c(C)c2)nc2ccc(Cl)cc2c1=O	0 (no)
5. COC1=CC(c2ccc[nH]2)=N/C1=C\c1[nH]c(C)c(C(=O)OCc2ccccc2)c1C	0 (no)

Inquiry: Hi team, can someone confirm the assay call for Oc1c(Cl)cc(Cl)c2ccc(Cn3cc(-c4cc(F)cc(F)c4)nn3)nc12 ?
Reply text: 0 (no)

Inquiry: Hi team, can someone confirm the assay call for COc1cnc2c(c1)C(=O)c1c-2n(CCCNCCO)c(=O)c2ccncc12 ?
Reply text: 1 (yes)

Inquiry: Hi team, can someone confirm the assay call for N=C(N)c1ccc(-c2ccc(-c3cc(Cl)cc(Cl)c3)o2)o1 ?
Reply text: 1 (yes)

###

Parameter: growth. Scope: all listed entries.
System: HS 578T breast
protocol_notes: NCI-60 one-dose screen, 48 h (100 = growth as untreated, 0 = no growth, -100 = all killed)
run_parameters: 10 µM unless noted
Compounds without any hit were thinned out: in the full panel of roughly 83,000, 20% have a hit.
// return numeric value only (unit: %, not printed)

Inquiry: Recall and state the measured growth for Cc1ccc(C(C(N)=O)C(C(N)=O)c2ccccc2)cc1 (centres undefined) .
Reply text: 124

Inquiry: Recall and state the measured growth for C=C(CNCCc1ccc(O)cc1)[C@@H]1CC[C@]2(CO)CC[C@]3(C)[C@H](CC[C@@H]4[C@@]5(C)CCC(NCCO)C(C)(C)[C@@H]5CC[C@]43C)[C@@H]12 (some centres undefined) .
Reply text: -61.1

Inquiry: Recall and state the measured growth for COc1ccc(-c2nc(/C=C3\SC(=NCc4ccccc4)NC3=O)c3ccccn23)cc1 .
Reply text: -35.3

Inquiry: Recall and state the measured growth for Cc1cccc(Cl)c1NC(=O)c1ccc2nc(NC(=O)NCCN(C)C)sc2c1 .
Reply text: 81.8

Inquiry: Recall and state the measured growth for Fc1cccc(CNc2c3ccccc3nc3ccccc23)c1F .
Reply text: 87

Inquiry: Recall and state the measured growth for CC(C)n1cnc2c(=S)nc[nH]c21 .
Reply text: 108

Inquiry: Recall and state the measured growth for O=C(O)/C(=C\c1ccc(Cl)cc1)c1ccc(Cl)cc1 .
Reply text: 78

Inquiry: Recall and state the measured growth for O=C(NNc1nccc(Nc2ccc(S(=O)(=O)Nc3ccncc3)cc2)n1)c1ccccc1 .
Reply text: 110

Inquiry: Recall and state the measured growth for CCCCN[C@H]1CC[C@@]2(C)[C@@H](CC[C@@]3(C)[C@H]2[C@H](O)C[C@H]2/C(=C(\CCC=C(C)C)C(=O)OC)[C@@H](OC(C)=O)C[C@@]23C)[C@@H]1C .
Reply text: 87.3
